Values compiled from the supplement of paper PMC10567573.

B1: SASS6 (parent)
chain: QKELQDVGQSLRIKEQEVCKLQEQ

Variants of: B1
ASSAY_PROTOCOL: protein stability index of a GFP-peptide fusion (GPS, HEK-293T) (PSI 1-6); higher = more stable;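 note: lentivirally expressed fusions sorted by FACS into six bins by GFP to DsRed ratio, PSI derived from sequencing read proportions per bin multiplied by bin number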
MEASUREMENT_CONDITIONS: c terminus: a fixed tail appended

RECORD_SEQUENCE: QKELQDVGQSLRINEQEVCKLQEQ [K14N]
protein stability index: 4.6

RECORD_SEQUENCE: QKELQDVGQSLRIKEQEMCKLQEQ [V18M]
protein stability index: 5.46

RECORD_SEQUENCE: QKELQDVGQSLRIKEQEVCKNQEQ [L21N]
protein stability index: 5.68

RECORD_SEQUENCE: QKELQDDGQSLRIKEQEVCKLQEQ [V7D]
protein stability index: 5.71

RECORD_SEQUENCE: QKELQDVGQSLRIKEQEVCKLQEA [Q24A]
protein stability index: 5.21

RECORD_SEQUENCE: QKELQDCGQSLRIKEQEVCKLQEQ [V7C]
protein stability index: 3.36

RECORD_SEQUENCE: QKDLQDVGQSLRIKEQEVCKLQEQ [E3D]
protein stability index: 5.34
